target: Cytochrome P450 2D6 (Homo sapiens)
Sequence (P10635 whole entry): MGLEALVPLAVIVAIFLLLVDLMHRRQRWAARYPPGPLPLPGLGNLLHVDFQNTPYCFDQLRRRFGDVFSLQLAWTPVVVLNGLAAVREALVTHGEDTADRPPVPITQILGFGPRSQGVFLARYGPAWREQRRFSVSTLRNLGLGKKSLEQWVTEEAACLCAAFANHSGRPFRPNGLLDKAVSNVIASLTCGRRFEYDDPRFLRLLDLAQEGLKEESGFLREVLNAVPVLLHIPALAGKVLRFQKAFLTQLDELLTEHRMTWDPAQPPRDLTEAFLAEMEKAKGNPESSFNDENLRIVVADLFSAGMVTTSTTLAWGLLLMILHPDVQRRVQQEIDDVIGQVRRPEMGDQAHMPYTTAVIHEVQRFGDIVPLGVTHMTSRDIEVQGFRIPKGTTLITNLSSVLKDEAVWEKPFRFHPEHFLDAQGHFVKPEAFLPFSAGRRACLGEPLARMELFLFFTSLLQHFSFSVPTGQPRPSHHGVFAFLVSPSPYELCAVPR
observed.property: IC50 (µM)
Write the number in µM without appending the unit.

Ask: Please tell me: IC50 of "COc1cccc2c(C(=O)N3CCN4CCCC[C@H]4C3)cn(CC3CCCCC3)c12" , system Cytochrome P450 2D6 (Homo sapiens)?
Reply: 13

* * *

Reported Ki values, Cannabinoid receptor 2 (Homo sapiens).
Write the number in nM without appending the unit.

O=C(c1cn2c3c(cccc13)OC[C@H]2C1CCCCC1)N1CCN2CCCC[C@H]2C1    0.398

Ask: What does the record list as Ki for "COc1cccc2c(C(=O)N3CCN4CCCC[C@H]4C3)cn(CC3CCCCC3)c12" ?
Reply: 3.98

* * *

target: Cannabinoid receptor 1 (Homo sapiens)
observed.property: pEC50
Answer as the number alone; pEC50 is minus log10 of concentration in mol/L.

COc1cccc2c(C(=O)N3C[C@H]4CCCN4CC3(C)C)cn(CC3CCCCC3)c12    6.20

Ask: What does the record list as pEC50 for "COc1cccc2c(C(=O)N3C[C@H]4CCCN4C[C@@H]3C)cn(CC3CCCCC3)c12.Cl" ?
Reply: 6.30

Ask: What does the record list as pEC50 for "COc1cccc2c(C(=O)N3C[C@H]4CCCN4C[C@H]3C)cn(CC3CCCCC3)c12.Cl" ?
Reply: 7.20

Ask: What does the record list as pEC50 for "COc1cccc2c(C(=O)N3C[C@H]4CCCN4C[C@H]3CC(C)C)cn(CC3CCCCC3)c12" ?
Reply: 6.50

Ask: What does the record list as pEC50 for "COc1cccc2c(C(=O)N3CCN4CCC[C@@H]4C3)cn(CC3CCCCC3)c12" ?
Reply: 7.20

* * *

target: Cannabinoid receptor 1 (Homo sapiens, UniProt P21554); test: biochemical
Sequence (P21554 whole entry): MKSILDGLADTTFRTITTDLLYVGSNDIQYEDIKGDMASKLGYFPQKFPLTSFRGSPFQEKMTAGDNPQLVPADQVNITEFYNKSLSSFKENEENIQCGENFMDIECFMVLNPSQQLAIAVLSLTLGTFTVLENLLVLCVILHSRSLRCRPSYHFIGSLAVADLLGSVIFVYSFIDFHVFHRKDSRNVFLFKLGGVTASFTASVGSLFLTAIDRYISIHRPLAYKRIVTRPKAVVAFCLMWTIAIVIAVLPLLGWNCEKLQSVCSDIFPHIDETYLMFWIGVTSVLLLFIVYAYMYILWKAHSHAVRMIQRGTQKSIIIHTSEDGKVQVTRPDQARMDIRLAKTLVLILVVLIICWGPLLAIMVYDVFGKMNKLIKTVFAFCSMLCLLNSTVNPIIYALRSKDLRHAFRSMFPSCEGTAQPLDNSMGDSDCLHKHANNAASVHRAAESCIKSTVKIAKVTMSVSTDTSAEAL
observed.property: pKi
Answer as the number alone; pKi is minus log10 of concentration in mol/L.

COc1cccc2c(C(=O)N3CCN4CCCC[C@H]4C3)cn(CC3CCCCC3)c12    8.60

Now look at this entry.
Ask: Please tell me: pKi of "O=C(c1cn2c3c(cccc13)OC[C@H]2C1CCCCC1)N1CCN2CCCC[C@H]2C1" , system Cannabinoid receptor 1 (Homo sapiens, UniProt P21554)?
Reply: 8.80

* * *

biological target: Cannabinoid receptor 1 (Homo sapiens, UniProt P21554)
pEC50: −log10 of the molar value.
Decide using pEC50: a value greater than or equal to 7 is true, a smaller one is false.

Illustrative cases are given below, each with its answer.
COc1cccc2c(C(=O)N3CCN4CCC[C@H]4C3)cn(CC3CCCCC3)c12.Cl    true
O=C(c1cn2c3c(cccc13)OC[C@@H]2C1CCCCC1)N1CCN2CCCC[C@H]2C1    false
COc1cccc2c(C(=O)N3C[C@@H]4CCCN4C[C@@H]3CC(C)C)cn(CC3CCCCC3)c12    false

Ask: State whether the measured pEC50 reaches 7, counting equality as reaching it, for "COc1cccc2c(C(=O)N3C[C@@H]4CCCN4C[C@H]3C)cn(CC3CCCCC3)c12.Cl"
Reply: false

Ask: State whether the measured pEC50 reaches 7, counting equality as reaching it, for "COc1cccc2c(C(=O)N3C[C@]4(C)CSCN4C[C@@H]3C)cn(CC3CCCCC3)c12.Cl"
Reply: true

Ask: State whether the measured pEC50 reaches 7, counting equality as reaching it, for "COc1cccc2c(C(=O)N3CCN4CCC[C@@]4(C)C3)cn(CC3CCCCC3)c12.Cl"
Reply: false

* * *

biological target: UniProt:P21554
observed.property: EC50 (nM)
Write the number in nM without appending the unit.

Completed entries (count: 2):
COc1cccc2c(C(=O)N3C[C@@H]4CCCN4C[C@@H]3C)cn(CC3CCCCC3)c12    100
COc1cccc2c(C(=O)N3C[C@@H]4CCCN4CC3(C)C)cn(CC3CCCCC3)c12    100

Ask: What does the record list as EC50 for "COc1cccc2c(C(=O)N3CCN4CCCC[C@@H]4C3)cn(CC3CCCCC3)c12" ?
Reply: 100
